These entries and their values trace back to ChEMBL document CHEMBL1132637.

- measurement.target: MAP kinase p38 (Homo sapiens, UniProt O15264+Q15759+Q16539+P53778)
- test.description: Inhibitory activity against Mitogen-activated protein kinase p38 (MAP kinase)
- Assay type: protein assay
Reported IC50 values follow for various compounds

{"query.smiles": "Fc1cccc(-c2[nH]c(-c3ccccc3)nc2-c2ccncc2)c1", "IC50 [nM]": 495}
{"query.smiles": "CNc1nccc(-c2[nH]c(-c3ccccc3)nc2-c2ccccc2)n1", "IC50 [nM]": 120}
{"query.smiles": "FC(F)(F)c1ccc(-c2[nH]c(-c3ccccc3)nc2-c2ccncc2)cc1", "IC50 [nM]": 200}
{"query.smiles": "c1ccc(-c2nc(-c3ccccc3)c(-c3ccncn3)[nH]2)cc1", "IC50 [nM]": 700}

###

Reported IC50 values follow for various compounds
- measurement.target: MAP kinase p38 (Homo sapiens, UniProt O15264+Q15759+Q16539+P53778)
- test.description: Inhibitory activity against Mitogen-activated protein kinase p38 (MAP kinase)
- Assay type: protein assay

{"query.smiles": "c1ccc(-c2nc(-c3ccncc3)c(-c3ccc(C4CCCCC4)cc3)[nH]2)cc1", "IC50": "> 10000 nM"}
{"query.smiles": "Fc1ccc(-c2[nH]c(C3CCCCC3)nc2-c2ccncc2)cc1", "IC50": "70 nM"}
{"query.smiles": "Fc1ccc(-c2nc[nH]c2-c2ccncc2)cc1", "IC50": "170 nM"}
{"query.smiles": "Clc1cccc(-c2nc(-c3ccccc3)[nH]c2-c2ccncc2)c1", "IC50": "130 nM"}

###

Reported IC50 values follow for various compounds
- measurement.target: Mitogen-activated protein kinase 9 (Homo sapiens)
- Sequence (P45984 whole entry): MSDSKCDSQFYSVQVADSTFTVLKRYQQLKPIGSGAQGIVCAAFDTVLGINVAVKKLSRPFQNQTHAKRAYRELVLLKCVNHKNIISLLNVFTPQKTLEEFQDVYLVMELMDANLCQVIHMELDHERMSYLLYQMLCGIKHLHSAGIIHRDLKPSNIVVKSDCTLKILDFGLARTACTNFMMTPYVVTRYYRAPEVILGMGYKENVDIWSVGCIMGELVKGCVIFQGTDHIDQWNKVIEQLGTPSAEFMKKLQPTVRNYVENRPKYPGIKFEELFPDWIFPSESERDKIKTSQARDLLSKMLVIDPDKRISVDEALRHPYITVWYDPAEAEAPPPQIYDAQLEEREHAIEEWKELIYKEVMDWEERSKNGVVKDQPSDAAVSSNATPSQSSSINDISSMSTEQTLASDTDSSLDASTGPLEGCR
- test.description: Inhibition of c-Jun N-terminal kinase 2-alpha 1

{"query.smiles": "C[C@H](Nc1cc(-c2c(-c3cccc(C(F)(F)F)c3)nc(C3CCNCC3)n2C)ccn1)c1ccccc1", "measurement.target": "Mitogen-activated protein kinase 9 (Homo sapiens)", "unit.tag": "µM", "IC50": 1.17}
{"query.smiles": "c1ccc(-c2nc(-c3ccccc3)c(-c3ccncn3)[nH]2)cc1", "measurement.target": "Mitogen-activated protein kinase 9 (Homo sapiens)", "unit.tag": "µM", "IC50": 1.42}
{"query.smiles": "COc1ccc(CNc2nccc(-c3[nH]c(C4CCNCC4)nc3-c3cccc(C(F)(F)F)c3)n2)cc1", "measurement.target": "Mitogen-activated protein kinase 9 (Homo sapiens)", "unit.tag": "µM", "IC50": 0.735}
